- Tested on: SK-MEL-2
- assay-details: NCI tumour cell line growth inhibition, 48 h
Calls of active or inactive are those of the source. Rule as the data show it: active = GI50 up to about 1.1 µM and inactive = higher.
reported-endpoint: GI50

Here is how some compounds turned out for GI50.
In [3]: df
Out[3]:
                                   compound  experimental_target  reported_endpoint             measured
0  O=C1c2ccccc2NC(c2cc(Cl)cc(Cl)c2O)N1CCc1ccccn1 (configuration not stated)             SK-MEL-2               GI50  > 100 µM (inactive)
1                      NNC(=O)CCCCCCCC(=O)O             SK-MEL-2               GI50  > 100 µM (inactive)
2  NC1CC2NC3CCCCC3NC2CC1N (configuration not stated)             SK-MEL-2               GI50   50.1 µM (inactive)
3                  NNC(=O)c1cc(=O)[nH][nH]1             SK-MEL-2               GI50  > 100 µM (inactive)

Query: GI50; subject: CC(=O)c1c(O)ccc2c1c1c(n2C)C(=O)c2ccccc2C1=O
> 100 µM (inactive)

Param item: NC1=C(Cl)C(=O)c2c(O)ccc(O)c2C1=O
4.72 µM (inactive)

Try this compound too: Nc1ccc2c(c1)Nc1c3ccccc3nc3cccc-2c13
1.73 µM (inactive)

Same question for COC(=O)c1ccc(NCc2cc(O)c3ccccc3c2O)cc1 please.
18.2 µM (inactive)

What would you report for O=C(O)C1CCCN1Cc1cc2ccccc2c2ccccc12 (configuration not stated) ?
> 100 µM (inactive)

###

- Tested on: 786-0
- assay-details: NCI tumour cell line growth inhibition, 48 h
Activity calls are given as the source filed them. Rule as the data show it: active = GI50 up to about 1.1 µM and inactive = higher.
Tick one outcome: yes (active), no (inactive)

Some entries whose results are on file:
In [3]: df
Out[3]:
                                   compound  experimental_target  assigned_class
0           O=C(CC(=O)Nc1ccccc1O)Nc1ccccc1O                786-0              no
1  CC[n+]1c(/C=C/c2ccc(N(CCCl)CCCl)cc2)ccc2cc(NC(=O)/C=C/c3ccccc3)ccc21                786-0             yes
2                  NNC(=O)c1cc(=O)[nH][nH]1                786-0              no

Query compound follows.
Test call for this compound, please: Cn1c(N2CCCC2)c(C=O)c(=O)n(C)c1=O
no

###

- System: PC-3
- assay-details: NCI tumour cell line growth inhibition, 48 h
Activity calls are given as the source filed them. Cut-off read from the data, not from the text of the source: active = GI50 up to about 1.1 µM and inactive = higher.
Entries and their measured GI50 follow.

                                   compound  experimental_target           measured
0  CN(C)CCn1c(=O)c2ccc(NCCNCCO)c3c(=O)c4ccccc4n(c1=O)c23                 PC-3  0.182 µM (active)

For the compound shown here, COc1ccc(/C=C/c2ccnc3ccccc23)c(OC)c1 , give the reported GI50.
8.38 µM (inactive)

###

- Test system: TK-10
- assay-details: NCI tumour cell line growth inhibition, 48 h
Active and inactive are the calls of the source. Rule as the data show it: active = GI50 up to about 1.1 µM and inactive = higher.
Each record here notes measured GI50.

Known results for compounds:
In [3]: df
Out[3]:
                                   compound             measured
0  CCCCCCCCCC1CC(=O)OC2=C1C(=O)CCC2 (stereo unspecified)  > 100 µM (inactive)
1   O=C(NCc1cccc2ccccc12)N/N=C\c1ccc(Cl)cc1  > 100 µM (inactive)

Form field: reported GI50 of COc1ccc(CN=C(N)N)c2ccccc12
22.2 µM (inactive)

Now try Nc1nc(N)c2nc(CN(C=O)c3ccc(C(=O)O)cc3)cnc2n1 .
> 29.2 µM (inactive)

Another: COc1ccc(C2SC(=N)Nc3c2c(C)nn3C(=O)c2ccccc2O)cc1OC (stereo unspecified)
> 10 µM (inactive)

Moving on to O=C1OCOC2(CCCC2)C1c1ccccc1 (stereo unspecified)
> 100 µM (inactive)

###

- System: Hs-578T
- assay-details: NCI tumour cell line growth inhibition, 48 h
Activity calls are given as the source filed them. Rule as the data show it: active = GI50 up to about 1.1 µM and inactive = higher.
Output constraint: value belongs to YES = active, NO = inactive

                                   compound  assigned_class
0  COC(=O)CCC(NC(=O)OC(C)(C)C)C(=O)NC(Cc1ccc(NC(=O)CCCC(C)=O)cc1)C(=O)NC(CCC(=O)OC)C(=O)OC (stereo not given)              NO
1  O=C1C=CC=C/C1=C1\N=C(c2ccccc2OCC(=O)c2ccccc2)SS1              NO
2  N#Cc1c(N)c2c(c(-c3ccccc3)c1-c1ccccc1)C(=O)N(NC(=S)Nc1ccccc1)C2=O              NO

Call for entry COc1ccc(C2=CC(c3ccc4c(c3)OCO4)c3c(c4ccccc4oc3=O)O2)cc1OC (stereo not given) :
NO

Input CCOC1CN(C)/C(=N\c2cccc3ccccc23)S1 (stereo not given)
NO

Consider next the compound O=C(O)c1ccc(/C=N/N=C2c3ccccc3-c3ccccc32)cc1 in the same way.
NO

Try this compound too: Cn1cnc(C(N)=[Se])c1N
NO

Field entry: CC1=NN(c2cccc(Cl)c2)C2(SCC(=O)N2c2nc3ccccc3s2)/C1=C\c1cccs1 (stereo not given)
NO

Proceed to CO[C@@H]1C=C[C@@]23c4cc5c(cc4C(O)N(CC2O)C3C1)OCO5 (stereo not given in full)
NO

Repeat for the following compound: COc1cc2c(c(OC)c1OC)-c1ccc(OC)c(=O)cc1[C@@H](NC(=O)c1ccccc1)CC2
YES

###

- Test system: HCC 2998
- assay-details: NCI tumour cell line growth inhibition, 48 h
Activity calls are given as the source filed them. Cut-off read from the data, not from the text of the source: active = GI50 up to about 1.1 µM and inactive = higher.
Parameter GI50: see the listing below.

compound	GI50
CN1C(=O)C(C#N)C2C[C@@]1(C)Oc1ccccc12 (stereo not given in full)	> 100 µM (inactive)

Which measured GI50 value corresponds to O=C1/C(=N\O)C2CCC1C2 (stereo not given) ?
> 100 µM (inactive)

For [N-]=[N+]=NC1C2CC3C4CC5CC3[C@H](C2)C(C5)C41 (stereo not given in full) then?
> 100 µM (inactive)

// same read-out, input: CSCCCNC(=O)c1csc(-c2csc(CCNC(=O)CNC(=O)CNC(=O)CNC(=O)OC(C)(C)C)n2)n1
> 100 µM (inactive)

Field entry: c1csc(-c2cc(-c3cccs3)c(-c3ccsc3)s2)c1
34.2 µM (inactive)

Follow-up item: COc1ccc(/C=C/c2ccnc3ccccc23)c(OC)c1
6.82 µM (inactive)

What would you report for O=CN/C=C/c1ccc(O)c(O)c1 ?
> 100 µM (inactive)

Another compound: O=C1C=CC=C/C1=C1\N=C(c2ccccc2OCC(=O)c2ccccc2)SS1
> 100 µM (inactive)

Let us now turn to CCOc1ncn(-c2ccc(NC(=S)Nc3cccc(O)c3)cc2)n1
> 100 µM (inactive)

Continue with N#C/C=C(/NC(=O)Nc1ccccc1)N1CCCC1
> 30.3 µM (inactive)

Request: CC(C(=O)ON1C(=O)CCC1=O)c1ccc(C(=O)c2ccccc2)s1 (stereo not given)
> 100 µM (inactive)

Lookup c1cc2c3ccsc3c3sccc3c2s1
36.4 µM (inactive)

Subsequent entry: CCOC(=O)c1sc2c(C(=O)OCC)n3ccccc3c2c1N
> 100 µM (inactive)

Same question, CCN(CC)C(=S)N/N=C(/c1ccccc1)c1ccccn1 this time
2.15 µM (inactive)

Moving on to O=C(O)CC1CC=C[C@H]2c3cc4c(cc3C(=O)NC12)OCO4 (stereo not given in full)
> 75 µM (inactive)

Do the same for N/C(S)=N/N=C/c1ncccc1O please
9.08 µM (inactive)

Entry to check: N#C/C(=C1\OC(=O)C(c2ccc(Br)cc2)=C1O)c1ccc(Br)cc1
15.5 µM (inactive)

Moving on to the next compound: CC(=O)NC1C(OCc2ccccc2)OC(CO)C(O)C1OC(C)C(=O)NC(C)C(=O)NC(CCC(=O)NCCCCNc1c2ccccc2nc2cccc([N+](=O)[O-])c12)C(N)=O (stereo not given)
0.013 µM (active)

Next compound up: CCCC1(CCC)c2cc(/C=N\O)ccc2-c2ccc(-c3ccc(C(C)(C)C)cc3)cc21
42.6 µM (inactive)

And for COc1cc(C(=O)OCCn2[nH]c(-c3ccc(Cl)cc3)nc2=S)cc(OC)c1OC ?
56.4 µM (inactive)

###

- Tested on: SN12C
- assay-details: NCI tumour cell line growth inhibition, 48 h
Active and inactive are the calls of the source. Rule as the data show it: active = GI50 up to about 1.1 µM and inactive = higher.
Pick from True for active, False for inactive when you respond.

>>> df
                    compound  experimental_target  assigned_class
0  COc1ccc2c(C)cc(=O)oc2c1OC                SN12C           False

Hi team, can someone confirm the assay call for COc1ccc(-c2cc(C(=O)Nc3cc(C(F)(F)F)cc(C(F)(F)F)c3)c3ccccc3n2)cc1 ?
False

Next entry: O=c1c2cc([N+](=O)[O-])ccc2oc2nc3n(c(=O)c12)CCCS3
False

Try O=CN/C=C/c1ccc(O)c(O)c1 next.
False

And the next one, [N-]=[N+]=NC1C2CC3C4CC5CC3[C@H](C2)C(C5)C41 (some centres not stated) ?
False

Then COc1cc(-c2cc(-c3cc([N+](=O)[O-])c(/C=N/NC(=O)c4ccncc4)o3)ccc2OC)ccc1C ?
False

Same thing, different compound: C=C1CC[C@@H](Br)C(C)(C)[C@]12CCC(C)(O)C(Cl)C2 (some centres not stated)
False

Okay, and C[C@]12CC[C@@H]3c4ccc(OC(=O)N(CCCl)CCCl)cc4CC[C@H]3[C@@H]1CC[C@@H]2O [ESTRAMUSTINE] ?
True

Also check CNC(=O)NS(=O)(=O)c1ccc(C)cc1.NS(=O)O
False

Would you mind doing Cc1cccc(C)c1NC(=S)NC=C(C(N)=O)C(N)=O as well?
False

Query O=c1cc(-c2ccc(O)cc2)oc2cc(O)cc(O)c12 [APIGENIN] next
False

Request: c1cc2c3ccsc3c3sccc3c2s1
False

// query: Cc1cc2sc(C)[n+](CCCOS(=O)(=O)[O-])c2cc1C
False

// query: C=C1C(=O)O[C@@H]2C(=O)[C@@H](C)[C@@H]3C=CC(=O)[C@@]3(C)[C@@H](OC(=O)/C(C)=C\C)[C@H]12 [MULTISTATIN]
False

Would you kindly repeat that for CC(=O)OCC1OC(SC2=NC(=O)/C(=C/c3ccccc3)S2)C(OC(C)=O)C(OC(C)=O)C1OC(C)=O (configuration not stated) ?
False

Repeat for the following compound: COc1c2cc(C(C)(C)C)cc1CSCc1cc(C(C)(C)C)cc(c1OC)CCCCC2
False

Quick one: CC(=O)OC/C=C(\C)CCC(Br)C(C)(C)Br (configuration not stated)
False

How about CSCCCNC(=O)c1csc(-c2csc(CCNC(=O)CNC(=O)CNC(=O)CNC(=O)OC(C)(C)C)n2)n1 ?
False
